TARGET_UNDER_TEST: T1, recombinant hPD-1 (construct not stated) (human, UniProt Q15116 25-167, limits assumed)
T1 construct: also called huPD-1; Human PD1
TEST_METHOD_NOTES: SPR, Ab captured, PD-1 analyte
REPORTED_METRIC: Kd (nM)
Write it as a number; the unit nM goes unstated.

What value of Kd has been recorded for this entry: ZJN296-0 (antibody, human IgG1, V domains shown, human IgG1; also called humanized ZJN296-0; GH + GL) VH: QVQLVQSGAEVKKPGASVKVSCKASGYDFTSHWMHWVRQAPGQGLEWMGAIDPSDSYTNYNQKFKGRVTMTTDTSTSTAYMELRSLRSDDTAVYYCARSPFDYWGQGTTVTVSS VL: DIQMTQSPSSLSASVGDRVTITCKASQDVSTAVAWYQQKPGKAPKLLIYSASYRYTGVPSRFSGSGSGTDFTFTISSLQPEDIATYYCQQHYSFPFTFGQGTKLEIK 8.7
